Reference source: patent US20250163057A1

Test system: Cullin-3 (CUL3) neddylation
Measurement description: AlphaLISA assay for Cullin-3 (CUL3) neddylation in TF 1 cells
Format: cell-based
Protocol conditions: Homo sapiens, TF-1, 3 h, 3 hours treatment
Protocol: An AiphaLISA assay was performed to evaluate the ability of the compounds to suppress neddylation, which is downstream from DCN-1 and DCN-2. A stronger inhibition of DCN-1 and DCN-2 is expected to result in a suppression of neddylation as shown by a lower AlphaLISA signal. […] The AlphaLISA signal was then read on a VICTOR Nivo Multimode Microplate Reader (Revvity, Hopkinton, MA). […]
pIC50: −log10 of the molar value.
Readout: pIC50

IN: Given the compound "CCN1C(=O)[C@@H](NC(=O)c2cccc(C(F)(F)F)c2)[C@@H](c2ccc(F)cc2)c2c(C(=O)N3C[C@H](F)C[C@H]3C#N)nn(C3CCOCC3)c21" , what is its reported pIC50?
OUT: ≥ 7.00

IN: Given the compound "CCN1C(=O)[C@@H](NC(=O)c2cccc(C(F)(F)F)c2)[C@@H](c2ccc(F)cc2)c2c(CN(C)C/C=C/C(=O)OC(C)(C)C)nn(-c3ccccc3)c21" , what is its reported pIC50?
OUT: < 6.00

IN: Given the compound "CCN1C(=O)[C@@H](NC(=O)c2cccc(C(F)(F)F)c2)[C@@H](c2ccc(F)cc2)c2c(CNC/C=C/C(=O)OC(C)(C)C)nn(-c3ccccc3)c21" , what is its reported pIC50?
OUT: 6.00 to 7.00

IN: Given the compound "CCN1C(=O)[C@@H](NC(=O)c2cccc(C(F)(F)F)c2F)[C@@H](c2ccc(F)cc2)c2c(C(=O)N3CCC[C@H]3C#N)nn(C3CCOCC3)c21" , what is its reported pIC50?
OUT: ≥ 7.00

IN: Given the compound C=C(CC(=O)NCc1nn(-c2ccccc2)c2c1[C@H](c1ccc(F)cc1)[C@H](NC(=O)c1cccc(C(F)(F)F)c1)C(=O)N2CC)C(=O)OC (racemic) , what is its reported pIC50?
OUT: ≥ 7.00

IN: Given the compound "CCN1C(=O)[C@@H](NC(=O)c2cccc(C(F)(F)F)c2)[C@@H](C2CCCC2)c2c(C(=O)N(C)[C@@H](C)C#N)nn(C3CCOCC3)c21" , what is its reported pIC50?
OUT: ≥ 7.00

IN: Given the compound CCN1C(=O)[C@@H](NC(=O)c2cccc(C(F)(F)F)c2)[C@@H](c2ccc(F)cc2)c2c(C(=O)N(C)[C@H](C#N)CCO)nn(-c3ccccc3)c21 (relative stereo) , what is its reported pIC50?
OUT: ≥ 7.00

IN: Given the compound "CCN1C(=O)[C@@H](NC(=O)c2cccc(C(F)(F)F)c2)[C@@H](c2ccc(F)cc2)c2c(CN(C#N)CCCN3CCOCC3)nn(-c3ccccc3)c21" , what is its reported pIC50?
OUT: ≥ 7.00

IN: Given the compound "CCN1C(=O)[C@@H](NC(=O)c2cccc(C(F)(F)F)c2)[C@@H](c2ccc(F)cc2)c2c(CN(C#N)CCCN(C)C)nn(-c3ccccc3)c21" , what is its reported pIC50?
OUT: ≥ 7.00

IN: Given the compound "CCN1C(=O)[C@@H](NC(=O)c2cccc(C(F)(F)F)c2)[C@@H](c2ccc(F)cc2)c2c(C(=O)N3[C@H](C#N)C[C@H]4C[C@H]43)nn(C3COC3)c21" , what is its reported pIC50?
OUT: ≥ 7.00

IN: Given the compound "CCCn1nc(C(=O)N2CCC[C@H]2C#N)c2c1N(CC)C(=O)[C@H](NC(=O)c1cccc(C(F)(F)F)c1)[C@@H]2c1ccc(F)cc1" , what is its reported pIC50?
OUT: < 6.00

IN: Given the compound "CCN1C(=O)[C@@H](NC(=O)c2cccc(C(F)(F)F)c2)[C@@H](c2ccc(F)cc2)c2c(CN(C#N)CCCN3CCC4(CC3)COC4)nn(-c3ccccc3)c21" , what is its reported pIC50?
OUT: ≥ 7.00

IN: Given the compound "CCN1C(=O)[C@@H](NC(=O)c2ccn(C(F)F)n2)[C@@H](C2CC2)c2c(C(=O)N3[C@H](C#N)C[C@H]4C[C@H]43)nn(C3CCOCC3)c21" , what is its reported pIC50?
OUT: 6.00 to 7.00
